Sequence of the target: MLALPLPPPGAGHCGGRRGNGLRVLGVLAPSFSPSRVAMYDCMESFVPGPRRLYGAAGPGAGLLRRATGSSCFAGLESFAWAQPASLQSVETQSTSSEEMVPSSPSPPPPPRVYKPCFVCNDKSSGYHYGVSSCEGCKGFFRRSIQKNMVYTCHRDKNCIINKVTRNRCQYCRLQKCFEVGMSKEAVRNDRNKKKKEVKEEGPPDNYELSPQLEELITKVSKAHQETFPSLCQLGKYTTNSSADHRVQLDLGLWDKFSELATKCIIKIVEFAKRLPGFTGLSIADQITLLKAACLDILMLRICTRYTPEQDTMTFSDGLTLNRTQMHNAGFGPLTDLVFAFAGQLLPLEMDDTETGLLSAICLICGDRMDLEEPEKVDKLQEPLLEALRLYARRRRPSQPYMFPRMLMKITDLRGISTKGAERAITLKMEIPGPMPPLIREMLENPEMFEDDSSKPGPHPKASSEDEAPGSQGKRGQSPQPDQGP
pKi: −log10 of the molar value.

| Smiles Code | pKi |
| --- | --- |
| CC(/C=C/c1ccccc1-c1cc(C(C)C)cc(C(C)C)c1OCCCF)=C\C(=O)O | < 5.00 |
| CC(/C=C/c1sccc1-c1cc(C(C)C)cc(C(C)C)c1OCC(F)F)=C\C(=O)O | < 5.00 |
| C/C(=C/C=C/C(C)=C/C(=O)O)c1cc(C(C)(C)C)cc(C(C)(C)C)c1OCC(F)F | < 6.00 |
| CCCOc1c(C2=C(/C=C/C(C)=C/C(=O)O)CCC2)cc(C(C)C)cc1C(C)C | < 6.00 |
| CC(/C=C/c1ccccc1-c1cc(C(C)C)cc(C(C)C)c1OCC(F)F)=C\C(=O)O | < 5.00 |
| Cc1cc2c(cc1C1(c3ccc(C(=O)O)cn3)CC1)C(C)(C)CCC2(C)C | < 6.00 |
